Biological target: human TLR9 (Homo sapiens)
Construct: host or cells: HEK-Blue cells (HEK293-derived reporter line)
Sequence (Q9NR96 26-1032): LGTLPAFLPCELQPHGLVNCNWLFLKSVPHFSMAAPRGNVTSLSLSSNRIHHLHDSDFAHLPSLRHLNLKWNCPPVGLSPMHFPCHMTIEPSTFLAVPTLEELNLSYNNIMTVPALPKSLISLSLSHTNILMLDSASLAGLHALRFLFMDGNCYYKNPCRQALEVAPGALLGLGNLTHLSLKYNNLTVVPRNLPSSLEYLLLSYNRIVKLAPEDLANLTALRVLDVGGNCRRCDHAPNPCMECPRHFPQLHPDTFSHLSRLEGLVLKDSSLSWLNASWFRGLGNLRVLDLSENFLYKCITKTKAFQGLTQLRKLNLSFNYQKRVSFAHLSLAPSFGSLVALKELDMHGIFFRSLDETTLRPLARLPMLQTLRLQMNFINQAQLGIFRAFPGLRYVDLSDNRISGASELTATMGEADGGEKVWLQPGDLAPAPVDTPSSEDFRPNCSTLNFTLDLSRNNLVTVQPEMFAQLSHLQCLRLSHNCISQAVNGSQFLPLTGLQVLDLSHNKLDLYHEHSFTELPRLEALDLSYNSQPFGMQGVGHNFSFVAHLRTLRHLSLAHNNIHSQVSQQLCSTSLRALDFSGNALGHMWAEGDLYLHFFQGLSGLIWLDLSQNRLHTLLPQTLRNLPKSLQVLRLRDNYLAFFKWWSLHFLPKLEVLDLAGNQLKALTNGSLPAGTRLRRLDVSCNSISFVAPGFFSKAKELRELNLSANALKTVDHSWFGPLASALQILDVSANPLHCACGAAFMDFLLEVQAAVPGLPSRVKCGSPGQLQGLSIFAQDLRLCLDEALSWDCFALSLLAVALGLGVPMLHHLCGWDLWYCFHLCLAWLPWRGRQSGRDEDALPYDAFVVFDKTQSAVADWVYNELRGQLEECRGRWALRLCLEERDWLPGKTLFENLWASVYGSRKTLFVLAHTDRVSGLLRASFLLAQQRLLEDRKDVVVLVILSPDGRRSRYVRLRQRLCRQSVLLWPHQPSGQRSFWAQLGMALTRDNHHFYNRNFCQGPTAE
Assay: TLR9 inhibition reporter assay (HEK-Blue cells, secreted embryonic alkaline phosphatase reporter)
Type: cell-based
Excerpt: TLR7/8/9 Inhibition Reporter Assays HEK-Blue™-cells (Invivogen) overexpressing human TLR7, TLR8 or TLR9 receptors were used for screening inhibitors of these receptors using an inducible SLAP (secreted embryonic alkaline phosphatase) reporter gene under the control of the […] minimal promoter fused to five NF-κB and AP-1-binding sites. […]
pIC50: −log10 of the molar value.
property: pIC50

Known pIC50 results, listed for orientation:
CC(C)CN1CCC(N2CCC(c3cc4nc(-c5ccc(S(C)(=O)=O)cc5)n(C)c4cc3F)CC2)CC1
6.92
Cn1c(-c2ccc(S(C)(=O)=O)cc2)nc2cc(C3CCN(C4CCN(CC5CC5)CC4)CC3)cc(F)c21
6.96
CC(C)CN1C2CCC1CC(N1CCC(c3cc(F)c4c(c3)nc(-c3ccc(S(C)(=O)=O)cc3)n4C)CC1)C2 (stereo not shown) [Example 209]
7.09

1. COCCN1C2CCC1CC(N1CCC(c3ccc4nc(-c5ccc(S(C)(=O)=O)cc5)n(C)c4c3F)CC1)C2 (single isomer, unassigned) [Example 277]
2. Cn1c(-c2ccc(S(C)(=O)=O)cc2)nc2cc(C3CCN(C4CC5CCC(C4)N5C4CCC4)CC3)c(F)cc21 (stereo not shown)
3. COc1ccc(-c2nc3c(C)cc(C4CCN(C5CC6CCC(C5)N6C(C)C)CC4)cc3n2C)cc1OC (stereo not shown) [Example 145]
4. Cn1c(-c2ccc(S(C)(=O)=O)cc2)nc2cc(C3CCN(C4CC5CCC(C4)N5CC4CC4)CC3)cc(F)c21 (stereo not shown) [Example 217]
Ranking field: pIC50; order: falling. Answer format: the labels, ordered as requested.
3, 2, 4, 1
(3: 7.62, 2: 7.15, 4: 6.89, 1: 6.57)

---

target: human TLR8 (Homo sapiens, UniProt Q9NR97); construct: host or cells: HEK-Blue cells (HEK293-derived reporter line); assay: TLR8 inhibition reporter assay (HEK-Blue cells, secreted embryonic alkaline phosphatase reporter); type: cell-based; details: HEK-Blue cells overexpressing human TLR8, stimulated with R848 15.9 μM; read-out: TLR 8 IC50
Sequence (Q9NR97 27-1041): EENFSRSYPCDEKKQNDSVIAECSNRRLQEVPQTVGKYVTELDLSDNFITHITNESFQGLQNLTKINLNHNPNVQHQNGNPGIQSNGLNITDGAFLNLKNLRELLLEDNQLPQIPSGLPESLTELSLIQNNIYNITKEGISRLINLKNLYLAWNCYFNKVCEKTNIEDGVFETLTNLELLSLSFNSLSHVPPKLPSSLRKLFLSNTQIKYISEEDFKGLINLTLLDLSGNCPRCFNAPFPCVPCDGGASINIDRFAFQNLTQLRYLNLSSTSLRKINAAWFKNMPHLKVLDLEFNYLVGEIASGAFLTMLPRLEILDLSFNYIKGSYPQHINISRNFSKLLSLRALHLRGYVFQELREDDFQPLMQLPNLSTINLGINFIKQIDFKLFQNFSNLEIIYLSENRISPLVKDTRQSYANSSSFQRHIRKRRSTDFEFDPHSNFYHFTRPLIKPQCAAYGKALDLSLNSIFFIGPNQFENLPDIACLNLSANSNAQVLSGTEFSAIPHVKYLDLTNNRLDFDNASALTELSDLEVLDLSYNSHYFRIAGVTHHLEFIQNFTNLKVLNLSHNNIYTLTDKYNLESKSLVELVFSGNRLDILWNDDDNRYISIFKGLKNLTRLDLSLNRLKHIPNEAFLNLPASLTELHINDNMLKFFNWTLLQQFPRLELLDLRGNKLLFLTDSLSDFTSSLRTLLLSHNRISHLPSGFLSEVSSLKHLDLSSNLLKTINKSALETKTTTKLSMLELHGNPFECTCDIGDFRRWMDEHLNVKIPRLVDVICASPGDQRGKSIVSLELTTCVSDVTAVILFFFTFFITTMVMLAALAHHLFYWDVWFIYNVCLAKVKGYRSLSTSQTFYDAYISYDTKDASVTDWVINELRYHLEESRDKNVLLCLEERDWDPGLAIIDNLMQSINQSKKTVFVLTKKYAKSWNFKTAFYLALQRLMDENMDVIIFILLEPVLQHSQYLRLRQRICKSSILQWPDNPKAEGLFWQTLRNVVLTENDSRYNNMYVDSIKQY
Reported IC50 values for the following molecules.

Reference set, count: 3
COCCN1CCC(N2CCC(c3cc(F)c4c(c3)nc(-c3ccc(S(C)(=O)=O)cc3)n4C)CC2)CC1 [Example 208]
> 50 µM
Cn1c(-c2ccc(S(C)(=O)=O)cc2)nc2c(F)c(C3CCN(C4CCN(C5COC5)CC4)CC3)ccc21 [Example 186]
> 50 µM
Cn1c(-c2ccc(S(C)(=O)=O)cc2)nc2cc(C3CCN(C4CCN(C5CCC5)CC4)CC3)c(F)cc21 [Example 243]
> 50 µM

Form field: reported IC50 of Cn1c(-c2ccc(S(C)(=O)=O)cc2)nc2cc(C3CCN(C4CC5CCC(C4)N5CC4CC4)CC3)cc(F)c21 (stereo not drawn) [Example 218]
48.7 µM

I have this molecule here, CC(C)CN1CCCC(N2CCC(c3ccc4nc(-c5ccc(S(C)(=O)=O)cc5)n(C)c4c3F)CC2)CC1 (stereo not drawn) [Example 310] , and I need its recorded IC50.
> 50 µM

Please give the measured IC50 for this molecule: Cc1cc(-c2ccc(C3CCN(C(C)C)CC3)nc2)cc2c1nc(-c1ccc(S(C)(=O)=O)cc1)n2C [Example 365]
14.2 µM

Quick check: IC50 of CC(C)N1C2CCC1CC(N1CCC(c3cc(F)c4nc(-c5ccc(S(C)(=O)=O)cc5)n(C)c4c3)CC1)C2 (single isomer, unassigned) [Example 107] ?
> 50 µM

Entry under review: CC(C)CN1C2CCC1CC(N1CCC(c3cc4c(cc3F)nc(-c3ccc(S(C)(=O)=O)cc3)n4C)CC1)C2 (single isomer, unassigned) [Example 228] . Reported IC50?
16.7 µM

So what does the record say about IC50 for CC(C)N1C2CCC1CC(N1CCC(c3cc(F)c4nc(-c5ccc(S(C)(=O)=O)cc5)n(C)c4c3)CC1)C2 (single isomer, unassigned) [Example 106] ?
> 50 µM

What does the record list as IC50 for COc1cc(-c2nc3c(C)cc(C4CCN(C5CCN(CC(C)C)CC5)CC4)cc3n2C)cn2ncnc12 [Example 353] ?
8.2 µM

Please report the recorded IC50 for Cc1cc(-c2cc(F)cc(CN3CCC(N4CCC4)CC3)c2)cc2c1nc(-c1ccc(S(C)(=O)=O)cc1)n2C [Example 406] .
2 µM

# input molecule: COc1ccc(-c2nc3ccc(C4CCN(C5CCN(C6CC6)CC5)CC4)cc3[nH]2)cc1OC [Example 29] ; wanted: its IC50
> 50 µM

Which IC50 is reported for this molecule? Cc1cc(-c2ccc(CN3CCC(N4CCC4)CC3)cc2)cc2c1nc(-c1ccc(S(C)(=O)=O)cc1)n2C [Example 402]
5.8 µM

Quick one: IC50 for CC(C)N1C2CCC1CC(N1CCC(c3cc4nc(-c5ccc(S(C)(=O)=O)cc5)n(C)c4cc3F)CC1)C2 (single isomer, unassigned) [Example 101] ?
> 50 µM

Endpoint output: IC50 of Cc1cc(C2CCN(C3CC4CCC(C3)N4CC3CC3)CC2)cc2c1nc(-c1ccc(S(C)(=O)=O)cc1)n2C (single isomer, unassigned) [Example 154] . Value?
> 25 µM

Using the record for CC(C)CN1C2CCC1CC(N1CCC(c3cc4nc(-c5ccc(S(C)(=O)=O)cc5)n(C)c4cc3F)CC1)C2 (stereo not drawn) [Example 248] , report its IC50.
> 50 µM

Name the reported IC50 value associated with the molecule CS(=O)(=O)c1ccc(-c2nc3c(F)cc(C4CCN(C5CC6CCC(C5)N6C5CCOCC5)CC4)cc3n2C2CC2)cc1 (stereo not drawn) [Example 328]
> 50 µM

Which value of IC50 has been reported for CC(C)CN1C2CCC1CC(N1CCC(c3ccc4c(nc(-c5ccc(S(C)(=O)=O)cc5)n4C)c3F)CC1)C2 (single isomer, unassigned) [Example 189] in the records?
> 50 µM

---

target: human TLR9 (Homo sapiens, UniProt Q9NR96); construct: host or cells: HEK-Blue cells (HEK293-derived reporter line); test: TLR9 inhibition reporter assay (HEK-Blue cells, secreted embryonic alkaline phosphatase reporter); type: cell-based; settings: HEK-Blue cells overexpressing human TLR9, stimulated with ODN2006 5 nM; read-out: TLR 9 IC50
property: IC50 (nM)

Cn1c(-c2ccc(S(C)(=O)=O)cc2)nc2ccc(C3CCN(C4CC5CCC(C4)N5C4CCC4)CC3)c(F)c21 (single isomer, unassigned) [Example 270]
65

P. Cc1cc(C2CCN(C3CC4CCC(C3)N4C(C)C)CC2)cc2[nH]c(-c3ccc(S(C)(=O)=O)cc3)nc12 (stereo not shown) [Example 332]
Q. COc1cc(-c2nc3c(C)cc(C4CCN(C5CC6CCC(C5)N6C5CC5)CC4)cc3n2C)cn2ncnc12 (stereo not shown)
R. Cc1cc(C2CCN(C3CCN(CC(C)C)CC3)CC2)cc2[nH]c(-c3ccc(OC(F)F)cc3)nc12
Give the ascending ranking of the items by reported IC50. # answer = labels listed in requested order
Q, P, R
